TARGET_SYSTEM: c-MET (Homo sapiens)
Construct: Purified GST fusion protein containing the Met kinase domain, Sugen, Inc
Sequence (P08581 1078-1345 limits assumed): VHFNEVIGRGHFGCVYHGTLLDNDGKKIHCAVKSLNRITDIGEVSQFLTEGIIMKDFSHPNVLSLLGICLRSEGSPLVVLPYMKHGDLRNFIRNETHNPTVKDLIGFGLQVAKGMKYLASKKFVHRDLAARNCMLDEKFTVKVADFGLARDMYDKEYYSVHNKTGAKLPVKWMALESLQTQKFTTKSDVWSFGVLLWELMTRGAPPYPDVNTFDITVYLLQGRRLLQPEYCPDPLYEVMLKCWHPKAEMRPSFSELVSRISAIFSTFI
ASSAY_SUMMARY: MET Transphosphorylation Assay (ELISA, poly(Glu,Tyr) 4:1 substrate)
Assay type: biochemical
QUANTITY_NAME: IC50 (nM)
Just the number in nM, nothing appended.

Record COc1ccc2[nH]c3nc4nnc(Cc5ccc(O)cc5)n4nc3c2c1Cl [Example 19] , field IC50: 12

----------
Entries and their pIC50 values follow.
TARGET_SYSTEM: c-MET (Homo sapiens)
Construct: Purified GST fusion protein containing the Met kinase domain, Sugen, Inc
ASSAY_SUMMARY: MET Transphosphorylation Assay (ELISA, poly(Glu,Tyr) 4:1 substrate)
Format: biochemical
TEST_SETTINGS: purified GST fusion protein containing the Met kinase domain; poly(glu, tyr) 4:1 substrate; read-out: c-MET IC50
To interpret pIC50, take it as minus log10 of a concentration measured in moles per litre.

Recorded results for 3 compounds are shown here.
Oc1ccc(Cc2nnc3nc4[nH]c5c(Cl)cc(Cl)c(Cl)c5c4nn23)cc1    6.34
Cc1cc(OCCN2CCOCC2)c(C)c2c1[nH]c1nc3nnc(Cc4ccc(O)cc4)n3nc12    7.55
Cc1cc(Cl)cc2c1[nH]c1nc3nnc(Cc4ccc(O)cc4)n3nc12    7.60

From here, focus on the item given below.
Record `Oc1ccc(Cc2nnc3nc4[nH]c5cccc(Cl)c5c4nn23)cc1` , field pIC50: 8.00
